- system: Histone deacetylase 1 (Homo sapiens)
- Sequence (Q13547 whole entry): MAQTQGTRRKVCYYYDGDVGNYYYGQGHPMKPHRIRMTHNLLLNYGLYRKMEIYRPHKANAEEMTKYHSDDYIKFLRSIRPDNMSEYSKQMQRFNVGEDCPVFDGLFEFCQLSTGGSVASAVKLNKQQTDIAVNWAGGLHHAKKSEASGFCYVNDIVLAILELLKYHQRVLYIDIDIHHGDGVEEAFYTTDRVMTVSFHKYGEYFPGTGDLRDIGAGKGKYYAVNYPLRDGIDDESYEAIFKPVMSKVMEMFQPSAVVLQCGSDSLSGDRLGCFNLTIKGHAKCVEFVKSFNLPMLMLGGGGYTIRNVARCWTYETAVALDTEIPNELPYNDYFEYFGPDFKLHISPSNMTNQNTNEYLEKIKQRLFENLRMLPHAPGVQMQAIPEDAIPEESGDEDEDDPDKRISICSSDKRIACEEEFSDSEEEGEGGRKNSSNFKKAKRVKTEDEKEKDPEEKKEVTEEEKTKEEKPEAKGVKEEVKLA
- assayMethodText: Inhibition of recombinant HDAC1 (unknown origin) using Boc-Lys(Ac)-AMC as substrate pre-incubated for 1 hr followed by substrate addition and measured after 2 hrs by fluorescence based assay
Below is a list of entries, each paired with its recorded IC50 value.
Numeric answer only, unit nM assumed.

Task: Recall the reported IC50 of COc1ccc2[nH]cc(CCN(Cc3ccc(C(=O)NO)cc3)C(=O)/C=C/c3ccc(O)c(OC)c3)c2c1 when tested on Histone deacetylase 1 (Homo sapiens).
Result: 771

Task: Recall the reported IC50 of COc1ccc2c(c1)c(CCNC(C)=O)cn2Cc1ccc(C(=O)NO)cc1 when tested on Histone deacetylase 1 (Homo sapiens).
Result: 262

----------
- system: Histone deacetylase 2 (Homo sapiens)
- Sequence (Q92769 whole entry): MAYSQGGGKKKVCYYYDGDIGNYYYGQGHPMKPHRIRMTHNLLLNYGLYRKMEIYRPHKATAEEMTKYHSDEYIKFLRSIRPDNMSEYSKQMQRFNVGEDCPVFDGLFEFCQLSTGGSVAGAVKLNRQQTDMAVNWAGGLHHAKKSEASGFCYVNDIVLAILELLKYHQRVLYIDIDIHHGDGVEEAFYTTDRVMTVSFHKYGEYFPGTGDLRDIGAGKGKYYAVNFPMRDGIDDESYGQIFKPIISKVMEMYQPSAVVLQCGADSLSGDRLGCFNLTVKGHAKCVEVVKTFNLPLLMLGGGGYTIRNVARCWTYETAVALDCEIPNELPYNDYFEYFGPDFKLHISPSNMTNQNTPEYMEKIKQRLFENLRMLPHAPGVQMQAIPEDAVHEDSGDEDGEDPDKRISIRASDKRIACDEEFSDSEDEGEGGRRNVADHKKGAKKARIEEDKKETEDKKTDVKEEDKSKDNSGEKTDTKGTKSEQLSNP
- assayMethodText: Inhibition of recombinant HDAC2 (unknown origin) using Boc-Lys(Ac)-AMC as substrate pre-incubated for 1 hr followed by substrate addition and measured after 2 hrs by fluorescence based assay
observedProperty: pIC50
Conceptually, pIC50 converts a concentration in mol/L into minus its log10.

Task: Input COc1ccc2[nH]cc(CCN(Cc3ccc(C(=O)NO)cc3)C(=O)/C=C/c3ccc(O)c(OC)c3)c2c1 , output reported pIC50.
Result: 5.55

Would you kindly look at the next entry?
Task: Input COc1ccc2c(c1)c(CCNC(C)=O)cn2Cc1ccc(C(=O)NO)cc1 , output reported pIC50.
Result: 6.47

----------
- system: Protein deacetylase HDAC6 (Homo sapiens, UniProt Q9UBN7)
- Sequence (Q9UBN7 whole entry): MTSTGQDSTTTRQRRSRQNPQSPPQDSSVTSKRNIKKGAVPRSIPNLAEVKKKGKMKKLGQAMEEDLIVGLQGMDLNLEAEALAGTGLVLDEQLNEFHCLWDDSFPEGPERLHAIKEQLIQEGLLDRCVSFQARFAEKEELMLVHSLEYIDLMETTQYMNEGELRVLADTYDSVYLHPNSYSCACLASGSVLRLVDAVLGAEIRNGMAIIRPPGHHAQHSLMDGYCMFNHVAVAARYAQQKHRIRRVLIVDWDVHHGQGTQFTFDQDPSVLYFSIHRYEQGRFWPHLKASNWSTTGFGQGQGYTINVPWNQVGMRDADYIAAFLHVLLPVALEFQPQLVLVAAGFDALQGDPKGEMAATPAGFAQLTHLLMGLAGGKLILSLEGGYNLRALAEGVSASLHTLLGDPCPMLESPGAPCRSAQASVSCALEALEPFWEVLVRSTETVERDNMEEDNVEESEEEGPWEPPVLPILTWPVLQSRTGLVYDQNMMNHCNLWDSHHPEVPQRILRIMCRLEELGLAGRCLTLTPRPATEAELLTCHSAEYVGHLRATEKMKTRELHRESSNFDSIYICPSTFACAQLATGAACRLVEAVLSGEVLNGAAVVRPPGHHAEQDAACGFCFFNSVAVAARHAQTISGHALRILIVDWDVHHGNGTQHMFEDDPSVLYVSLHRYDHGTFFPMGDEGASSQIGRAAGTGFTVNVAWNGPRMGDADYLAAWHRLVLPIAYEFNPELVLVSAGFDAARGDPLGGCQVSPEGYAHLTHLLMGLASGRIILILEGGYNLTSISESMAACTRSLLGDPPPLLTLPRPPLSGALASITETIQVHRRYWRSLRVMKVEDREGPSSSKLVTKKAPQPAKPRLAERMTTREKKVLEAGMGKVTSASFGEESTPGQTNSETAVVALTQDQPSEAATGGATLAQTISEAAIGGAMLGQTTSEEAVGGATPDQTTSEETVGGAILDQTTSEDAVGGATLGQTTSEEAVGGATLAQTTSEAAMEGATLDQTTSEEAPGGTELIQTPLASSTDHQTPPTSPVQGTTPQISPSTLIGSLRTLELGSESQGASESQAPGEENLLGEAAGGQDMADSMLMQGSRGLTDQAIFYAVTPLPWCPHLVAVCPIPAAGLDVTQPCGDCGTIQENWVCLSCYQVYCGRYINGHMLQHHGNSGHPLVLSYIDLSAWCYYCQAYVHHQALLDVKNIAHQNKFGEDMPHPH
- assayMethodText: Inhibition of recombinant HDAC6 (unknown origin) using Boc-Lys(acetyl)-AMC as substrate preincubated for 1 hr followed by substrate addition and measured after 2 hrs by fluorescence based assay
Below is a list of entries, each paired with its recorded IC50 value.
Numeric answer only, unit nM assumed.

Task: Input COc1ccc2c(c1)c(CCNC(C)=O)cn2Cc1ccc(C(=O)NO)cc1 , output reported IC50.
Result: 11.2

Task: Input COc1ccc2c(c1)c(CCNC(C)=O)cn2Cc1ccc(/C=C/C(=O)NO)cc1 , output reported IC50.
Result: 68.8

Task: Input COc1ccc2[nH]cc(CCN(Cc3ccc(/C=C/C(=O)NO)cc3)C(=O)/C=C/c3ccc(O)c(OC)c3)c2c1 , output reported IC50.
Result: 25.6

Task: Input COc1ccc2[nH]cc(CCNC(=O)CN(Cc3ccc(/C=C/C(=O)NO)cc3)C(=O)/C=C/c3ccc(O)c(OC)c3)c2c1 , output reported IC50.
Result: 53.2

Task: Input COc1ccc2c(c1)c(CCNC(C)=O)cn2CCCCCC(=O)NO , output reported IC50.
Result: 52.3

Task: Input COc1ccc2[nH]cc(CCNCc3ccc(/C=C/C(=O)NO)cc3)c2c1 , output reported IC50.
Result: 21.4

Task: Input COc1ccc2[nH]cc(CCNC(=O)/C=C/c3ccc(C(=O)NO)cc3)c2c1 , output reported IC50.
Result: 33.7

Task: Input COc1ccc2[nH]cc(CCNC(=O)CN(CCCCCC(=O)NO)C(=O)/C=C/c3ccc(O)c(OC)c3)c2c1 , output reported IC50.
Result: 57

Task: Input COc1ccc2[nH]cc(CCN(CCCCCC(=O)NO)C(=O)/C=C/c3ccc(O)c(OC)c3)c2c1 , output reported IC50.
Result: 353

Task: Input COc1ccc2[nH]cc(CCNC(=O)c3ccc(/C=C/C(=O)NO)cc3)c2c1 , output reported IC50.
Result: 19.1

Others:
Task: Input COc1ccc2[nH]cc(CCN(Cc3ccc(C(=O)NO)cc3)C(=O)/C=C/c3ccc(O)c(OC)c3)c2c1 , output reported IC50.
Result: 30.7

Data provenance: ChEMBL document CHEMBL5036306
